# Measured on: HDAC3 (Homo sapiens, UniProt O15379)
# Construct: purchased Reaction Biology Corporation (assay run by the CRO)
# Sequence (O15379 whole entry): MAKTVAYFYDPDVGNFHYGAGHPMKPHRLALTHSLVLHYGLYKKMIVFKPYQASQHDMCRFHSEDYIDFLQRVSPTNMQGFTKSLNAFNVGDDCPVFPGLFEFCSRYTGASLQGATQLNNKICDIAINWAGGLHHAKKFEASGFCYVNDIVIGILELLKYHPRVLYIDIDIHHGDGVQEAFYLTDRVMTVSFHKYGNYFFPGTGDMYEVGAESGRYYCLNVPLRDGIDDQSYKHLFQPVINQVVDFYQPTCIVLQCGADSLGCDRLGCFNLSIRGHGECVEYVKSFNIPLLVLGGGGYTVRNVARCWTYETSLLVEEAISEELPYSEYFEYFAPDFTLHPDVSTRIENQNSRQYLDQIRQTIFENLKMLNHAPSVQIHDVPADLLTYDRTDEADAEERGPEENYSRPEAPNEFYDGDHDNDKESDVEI
# Sequence (Q9Y618 395-489 partner limits assumed): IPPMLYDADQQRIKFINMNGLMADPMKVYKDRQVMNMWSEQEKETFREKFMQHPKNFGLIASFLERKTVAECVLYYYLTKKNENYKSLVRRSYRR
# Protocol summary: HDAC3 inhibition, full IC50 measurement (Reaction Biology; fluorogenic p53 peptide RHKK(Ac)AMC)
# Type: biochemical
# Assay conditions: Conc. 1.23E-07 M, t2
Peptide text beside a SMILES is read from it.
Hi there, I'd appreciate the recorded HDAC3 activity raw data (signal) for every entry that follows.
Give bare numbers.

molecule="NCCCC[C@H]1NC(=O)[C@H](CCC(N)=O)NC(=O)[C@H](CCC(=O)O)NC(=O)[C@@H]2CCCN2C(=O)[C@H](CC(N)=O)NC(=O)[C@H](CCCCCS)NC(=O)CNC(=O)[C@H](Cc2c[nH]c3ccccc23)NC1=O [des1.1.1, SHA-Asn-Pro-Glu-Gln-dLys-Trp-Gly] (HELM PEPTIDE1{E.Q.[dK].W.G.[O=C([C@H](CCCCCS)N[*:1])[*:2]].N.P}$PEPTIDE1,PEPTIDE1,1:R1-8:R2$$$V2.0)" property_measured="HDAC3 activity raw data (signal)" value_reported=515219

Now for the molecule whose HDAC3 activity raw data (signal) we want.
The molecule listed as CCCC[C@H]1NC(=O)[C@H](Cc2ccccc2)NC(=O)[C@H](CCCCCS)NC(=O)[C@@H](CCCNC(=N)N)NC(=O)[C@H](CC(=O)O)NC(=O)[C@@H](CO)NC(=O)[C@@H](C)NC(=O)[C@H](CCCCN)NC1=O [des4.3.1, SHA-Phe-dNle-Lys-dAla-dSer-Asp-dArg] (HELM PEPTIDE1{D.[dR].[O=C([C@H](CCCCCS)N[*:1])[*:2]].F.[CCCC[C@@H](N[*:1])C(=O)[*:2]].K.[dA].[dS]}$PEPTIDE1,PEPTIDE1,1:R1-8:R2$$$V2.0) has a reported HDAC3 activity raw data (signal) of 1070696

src = paper PMC8185074
